Listing of entries alongside the reported Kd.
# experimental-target: canine FcRn complex (FcRn-alpha subunit and beta-microglobulin), His-tagged, biotin labeled (canine)
# test-description: SPR (Biacore), biotin-FcRn captured on SA surface, IgG flowed over, pH 6, 15 C
Output spec: scalar in nM, unitless text.

canine IgGB (65) mAb with mutation A426K (antibody, part only; not given: Variable domains, not shown: another chain or arm of the molecule) constant: ASTTAPSVFPLAPSCGSTSGSTVALACLVSGYFPEPVTVSWNSGSLTSGVHTFPSVLQSSGLYSLSSMVTVPSSRWPSETFTCNVAHPASKTKVDKPVPKRENGRVPRPPDCPKCPAPEMLGGPSVFIFPPKPKDTLLIARTPEVTCVVVDLDPEDPEVQISWFVDGKQMQTAKTQPREEQFNGTYRVVSVLPIGHQDWLKGKQFTCKVNNKALPSPIERTISKARGQAHQPSVYVLPPSREELSKNTVSLTCLIKDFFPPDIDVEWQSNGQQEPESKYRTTPPQLDEDGSYFLYSKLSVDKSRWQRGDTFICKVMHEALHNHYTQESLSHSPGK | 3.81

Give its Kd value. Item: canine IgGB (65) mAb with mutation T286G (antibody, part only; not given: Variable domains, not shown: another chain or arm of the molecule) constant: ASTTAPSVFPLAPSCGSTSGSTVALACLVSGYFPEPVTVSWNSGSLTSGVHTFPSVLQSSGLYSLSSMVTVPSSRWPSETFTCNVAHPASKTKVDKPVPKRENGRVPRPPDCPKCPAPEMLGGPSVFIFPPKPKDTLLIARTPEVTCVVVDLDPEDPEVQISWFVDGKQMQGAKTQPREEQFNGTYRVVSVLPIGHQDWLKGKQFTCKVNNKALPSPIERTISKARGQAHQPSVYVLPPSREELSKNTVSLTCLIKDFFPPDIDVEWQSNGQQEPESKYRTTPPQLDEDGSYFLYSKLSVDKSRWQRGDTFICAVMHEALHNHYTQESLSHSPGK
6.48

Kd for canine IgGB (65) mAb with mutation Y436C (antibody, part only; not given: Variable domains, not shown: another chain or arm of the molecule) constant: ASTTAPSVFPLAPSCGSTSGSTVALACLVSGYFPEPVTVSWNSGSLTSGVHTFPSVLQSSGLYSLSSMVTVPSSRWPSETFTCNVAHPASKTKVDKPVPKRENGRVPRPPDCPKCPAPEMLGGPSVFIFPPKPKDTLLIARTPEVTCVVVDLDPEDPEVQISWFVDGKQMQTAKTQPREEQFNGTYRVVSVLPIGHQDWLKGKQFTCKVNNKALPSPIERTISKARGQAHQPSVYVLPPSREELSKNTVSLTCLIKDFFPPDIDVEWQSNGQQEPESKYRTTPPQLDEDGSYFLYSKLSVDKSRWQRGDTFICAVMHEALHNHCTQESLSHSPGK ?
8.84

Quick one: Kd of canine IgGB (65) mAb with mutation Q311G (antibody, part only; not given: Variable domains, not shown: another chain or arm of the molecule) constant: ASTTAPSVFPLAPSCGSTSGSTVALACLVSGYFPEPVTVSWNSGSLTSGVHTFPSVLQSSGLYSLSSMVTVPSSRWPSETFTCNVAHPASKTKVDKPVPKRENGRVPRPPDCPKCPAPEMLGGPSVFIFPPKPKDTLLIARTPEVTCVVVDLDPEDPEVQISWFVDGKQMQTAKTQPREEQFNGTYRVVSVLPIGHGDWLKGKQFTCKVNNKALPSPIERTISKARGQAHQPSVYVLPPSREELSKNTVSLTCLIKDFFPPDIDVEWQSNGQQEPESKYRTTPPQLDEDGSYFLYSKLSVDKSRWQRGDTFICAVMHEALHNHYTQESLSHSPGK ?
8.42
